Every entry's value here was drawn from ChEMBL document CHEMBL4513216.

- Test system: Plasmodium falciparum
- assay overview: Screen against P. falciparum Asexual Blood Stage (ABS), at 5uM
- Assay type: functional, Dd2
- measurement setup: tested at 5 uM
About 2,100 (3.2%) of roughly 65,000 compounds showed an effect of 50% or more. The median lay at about -52%. What follows is part of a selection rich in strong results, with near analogues and random picks from the rest.

# compound, system, unit text, INHIBITION
data = [
    ("COc1cccc(CNCc2c(C(C)C)nn(C)c2N(C)C)c1", "Plasmodium falciparum", "%", -5.49),
    ("O=C(O)c1ccnc(SCC(F)(F)F)c1", "Plasmodium falciparum", "%", -13.4),
    ("Cc1cc(NCC2CC(=O)Nc3ccccc32)nc(C)n1 (configuration not stated)", "Plasmodium falciparum", "%", -151),
    ("CC(Cn1ccnc1)NC(=O)N1CCN(Cc2ccsc2)CC1 (configuration not stated)", "Plasmodium falciparum", "%", 58.4),
    ("CC(=O)NCC(=O)Nc1cc(C)n(-c2ccc(Cl)cc2Cl)n1", "Plasmodium falciparum", "%", -97),
    ("COC[C@H]1CCCN1c1nccc(-c2cnn(-c3ccccc3C)c2)n1", "Plasmodium falciparum", "%", -32.9),
    ("CCOc1nnc(CN2CCN(CCOC)C(C)C2)s1 (configuration not stated)", "Plasmodium falciparum", "%", 1.7),
    ("O=C1CC(CNc2cncc(Br)c2)c2ccccc2N1 (configuration not stated)", "Plasmodium falciparum", "%", 12.2),
    ("Cc1ccc2c(c1)CN(C(=O)c1cnc(C)cn1)C(CN(C)C)CO2 (configuration not stated)", "Plasmodium falciparum", "%", -86.1),
    ("c1ccc(CN2CCc3ncnc(-c4cccnc4)c3CC2)nc1", "Plasmodium falciparum", "%", -71.1),
    ("Cc1ccc2c(c1)CN(C(=O)c1ccncc1)C(CN(C)C)CO2 (configuration not stated)", "Plasmodium falciparum", "%", 13),
    ("Cc1ccc2c(c1)CN(C(=O)c1cccnc1)C(CN(C)C)CO2 (configuration not stated)", "Plasmodium falciparum", "%", 29.2),
]
